Target: T1, ECF33_375
T1 chain: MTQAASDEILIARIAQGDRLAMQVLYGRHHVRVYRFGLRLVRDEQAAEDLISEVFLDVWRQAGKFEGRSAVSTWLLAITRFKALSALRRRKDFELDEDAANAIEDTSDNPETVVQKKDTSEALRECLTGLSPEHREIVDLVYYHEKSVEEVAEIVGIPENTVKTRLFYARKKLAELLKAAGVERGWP
Reported property: fold repression
Please state the value as a number alone, without comment.

• AS11_987 (protein) MNKHPDNNLLEAYASGSIDAVSGLVVATHLETCSKCRAYVNQVEASQANTVSESPSEYSPEFDDMLNDIINAEPVNDNVVIQDTAFVNVAGKSFELPKTLVRFSDLVGSWRSYGGKVFSAQIDLGEDARVSLMYIGENVQIPQHTHRGLESTLVLHGGFSDEDGQYEEGDLMVRDASVKHSPFTQEGEDCLCLTVLTEPMIFTQGVARIFNLFGKGLYP = 1.99

Task: Output measured fold repression for this item: AS04_1609 (protein) MNRTTEQRNAEVMKTIGLLDQMPRVEVDHLFRVRLMQRIEAMEVKKTSWSALPGGAFNPRLAFMALLLMLNIASALMLFMHGTPQATGSSGAIAESLTEDYGGPALSYYDDQTTIDR
Result: 3.16

Task: Output measured fold repression for this item: AS37_2513 (protein) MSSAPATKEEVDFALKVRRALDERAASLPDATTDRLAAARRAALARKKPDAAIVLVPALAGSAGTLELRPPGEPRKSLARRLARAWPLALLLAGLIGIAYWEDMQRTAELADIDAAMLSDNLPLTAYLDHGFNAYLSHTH
Result: 2.48

Task: Output measured fold repression for this item: AS03_1244 (protein) MKQFDPDVNIRPKEDSIRHYSVPDDYFASFTDKLMAQIPAVKEENTVVVPSVALWPKLRPLLYLAASFLLMIGMFKAFSLFGVGSDTGRTTSTSAGLVALDHGDTRWSEDTDYRDFLHDNCAETVSDEWVLTDFSE
Result: 1.51

Task: Output measured fold repression for this item: AS33_375 (protein) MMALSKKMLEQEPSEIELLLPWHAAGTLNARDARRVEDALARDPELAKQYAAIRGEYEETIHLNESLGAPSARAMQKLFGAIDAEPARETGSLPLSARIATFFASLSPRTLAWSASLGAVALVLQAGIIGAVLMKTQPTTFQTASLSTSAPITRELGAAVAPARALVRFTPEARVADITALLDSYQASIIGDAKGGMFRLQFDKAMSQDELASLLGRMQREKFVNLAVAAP
Result: 152

Task: Output measured fold repression for this item: AS22_4450 (protein) MELDDMKHAWQTLEQRLDQQAAQTGQLLGVVHEETVRSSLRPLWVAQTAQLLCALALAIVSARSWIPHTDQPVAVIGGVLLQAWCMALAISAMVQLQLLTQFNVAGPLLRTQHALARLRRWRTRVAPWLGVAFWVLWIAVADALWRALTGQTLPTDWLVLNLLVGVAGGIGTWLGFRRLQRAQHPWLERIDRAHAGTGVIRAERMLEEIARFQRD
Result: 1.4

src = paper PMC3817407
